- assay comment: melting temperature; fluorescence melt of hairpins on a sequencing array, two-state fit, raised by 9.35 °C to match UV melts
- condition notes: sodium 0.088 M
parameter: Tm (°C)
Field format: number, assumed °C, no unit text.

# input sequence: CGGGCCCGGAAACGGCCG (((..(((....)))))) ; wanted: its Tm
50.3

Also check GATCAGATATCTGATC ((((((....))))))
50.3

Also check CGTTACGGAAACGTGACG (((.(((....))).)))
51.5

Also check GGAGTCGAAAGACTTCC ((((((....))).)))
48.7

###

- assay comment: folding enthalpy; higher = less favourable; fluorescence melt of hairpins on a sequencing array, two-state fit
- condition notes: sodium 0.088 M
Task for the reader: assign each of the following sequences its reported folding enthalpy.
Field format: number, assumed kcal/mol, no unit text.

# input sequence: GACCTCGGAAACGAGATC ((.((((....)))).)) ; wanted: its folding enthalpy
-20.3

Also check GCGAATTCGAAAGAACGC (((..(((....))))))
-20.4

Also check GTCGTAGCGAAAGCTGAC (((..(((....))))))
-19.6

###

- assay comment: folding enthalpy; higher = less favourable; fluorescence melt of hairpins on a sequencing array, two-state fit
- condition notes: sodium 0.088 M
Task for the reader: assign each of the following sequences its reported folding enthalpy.
Field format: number, assumed kcal/mol, no unit text.

# input sequence: CGCACGGAAACGTTCGCG ((((((....)))..))) ; wanted: its folding enthalpy
-22.7

Also check GCACTGGCGAAAGCCTGC (((..(((....))))))
-12.1

Also check GGGATGGCGAAAGCCCCC (((..(((....))))))
-15.7

Also check GGCAACGGAAACGTTACC ((.((((....)))).))
-29.8

Also check GATCGAGGTATCGATC ((((((....))))))
-39.6

Also check GGTCCAGGAAACTGGGTC (..((((....))))..)
-15.3

Also check GTTGCCACGAAAGTGAAC (((..(((....))))))
-11.8

Also check GATCTATTAGTAGATC ((((((....))))))
-33.8

Also check GGGAATGGAAACATTCTC (.(((((....))))).)
-24.2

Also check GGACCGTCGAAAGACTCC (((..(((....))))))
-12.9

Also check GTTTGGTCGAAAGACAAC (((..(((....))))))
-13.2

Also check GCTGAGCGAAAGCGGAGC (((..((....))..)))
-26.9

Also check GAGCCCGAAAGGGACTC ((((((....))).)))
-22.9

Also check GAGACGGGAAACCGTCTC (((((((....)))))))
-28

Also check ACCTAGAAATAGGT (((((....)))))
-11.8

Also check GATTAACCGAAAGGTATC (((..(((....))))))
-12.7

Also check GTCCACACGAAAGTGGAC (((..(((....))))))
-29.9

Also check GTGATCGGAAACGACCAC (((.(((....))).)))
-42

Also check GCTTCCGGAAACGGAAAC (.(((((....))))).)
-14.7

Also check GCTTGCGAAAGCATTAGC ((((((....)))..)))
-15.2

Also check GATCTTATGAAAGATC ((((((....))))))
-30.6

Also check GCCGTGCGAAAGCATTGC ((..(((....)))..))
-12.6

Also check GGTTTACCGAAAGGTACC (((..(((....))))))
-9.75

Also check GCGCATGGAAACATGCAC (.(((((....))))).)
-12.5

Also check GATCACACGCGTGATC ((((((....))))))
-38.6

Also check GCTTGCGCGAAAGCGAGC (((..(((....))))))
-13.3

Also check CGTCCGGAAACGGGAACG ((((((....)))..)))
-22.5

Also check GCGAAAGGAAACCTTCGC (((((.(....).)))))
-34.4

Also check GCCTTGTCGAAAGACGGC (((..(((....))))))
-18

Also check GGGAGGCCGAAAGGCCCC (((..(((....))))))
-9.7

Also check GCCGCGCGAAAGCATGGC (((..((....))..)))
-26.7
